- target.or.system: PIK3CA (human), P42336 [Antiproliferation of PI3K Mutated BT20 Cells]
- Sequence (P42336 whole entry, looked up, change not shown): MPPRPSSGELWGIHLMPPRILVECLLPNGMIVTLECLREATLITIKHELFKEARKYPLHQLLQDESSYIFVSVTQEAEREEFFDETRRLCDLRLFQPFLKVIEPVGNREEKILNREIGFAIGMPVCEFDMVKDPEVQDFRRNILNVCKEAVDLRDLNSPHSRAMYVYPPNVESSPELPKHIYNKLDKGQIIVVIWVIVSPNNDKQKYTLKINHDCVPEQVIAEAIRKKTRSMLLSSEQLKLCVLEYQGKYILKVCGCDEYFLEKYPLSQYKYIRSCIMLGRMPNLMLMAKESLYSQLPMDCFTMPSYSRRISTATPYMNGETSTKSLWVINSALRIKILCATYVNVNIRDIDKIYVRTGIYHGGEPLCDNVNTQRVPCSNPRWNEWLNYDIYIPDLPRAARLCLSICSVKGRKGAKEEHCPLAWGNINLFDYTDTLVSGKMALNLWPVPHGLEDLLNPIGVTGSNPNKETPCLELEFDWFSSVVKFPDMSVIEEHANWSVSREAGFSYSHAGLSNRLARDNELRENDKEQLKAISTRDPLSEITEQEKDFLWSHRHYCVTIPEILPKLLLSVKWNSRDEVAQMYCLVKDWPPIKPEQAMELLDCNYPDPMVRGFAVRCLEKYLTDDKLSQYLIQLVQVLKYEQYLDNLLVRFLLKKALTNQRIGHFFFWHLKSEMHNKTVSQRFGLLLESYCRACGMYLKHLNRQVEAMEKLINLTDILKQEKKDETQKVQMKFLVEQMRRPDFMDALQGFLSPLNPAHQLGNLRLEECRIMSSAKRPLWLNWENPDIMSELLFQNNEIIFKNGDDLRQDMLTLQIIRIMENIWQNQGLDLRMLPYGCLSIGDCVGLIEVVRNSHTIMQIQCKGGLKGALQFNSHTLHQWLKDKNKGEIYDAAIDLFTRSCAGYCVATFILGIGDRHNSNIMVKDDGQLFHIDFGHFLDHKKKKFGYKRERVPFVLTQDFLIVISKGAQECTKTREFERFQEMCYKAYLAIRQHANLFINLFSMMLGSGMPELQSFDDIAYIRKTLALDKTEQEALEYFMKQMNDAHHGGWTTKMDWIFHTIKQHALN
- assay.text: Cell-Based Assay
Classes by IC50: bucket 1: < 20 nM; bucket 2: ≥ 20 nM and < 500 nM; bucket 3: ≥ 500 nM

Worked examples follow.
- structure: "Cc1nc(N)nc2c1cc(-c1cccc(O)c1)c(=O)n2C1CCCC1"
  target.or.system: "PIK3CA (human), P42336 [Antiproliferation of PI3K Mutated BT20 Cells]"
  classification: "bucket 1"
- structure: "Cc1nc(N)nc2c1cc(-c1cn[nH]c1)c(=O)n2C1CCC(=O)CC1"
  target.or.system: "PIK3CA (human), P42336 [Antiproliferation of PI3K Mutated BT20 Cells]"
  classification: "bucket 1"
- structure: "Cc1nc(N)nc2c1cc(-c1cn[nH]c1)c(=O)n2C1CCCC1"
  target.or.system: "PIK3CA (human), P42336 [Antiproliferation of PI3K Mutated BT20 Cells]"
  classification: "bucket 1"
- structure: "CCNc1nc(C)c2cc(-c3ccc(O)c(OC)c3)c(=O)n(C3CCCC3)c2n1"
  target.or.system: "PIK3CA (human), P42336 [Antiproliferation of PI3K Mutated BT20 Cells]"
  classification: "bucket 2"
- structure: "COc1cc(-c2cc3c(C)nc(N)nc3n(C3CCCC3)c2=O)ccc1O"
  target.or.system: "PIK3CA (human), P42336 [Antiproliferation of PI3K Mutated BT20 Cells]"
  classification: "bucket 1"
- structure: "Cc1nc(N)nc2c1cc(-c1cnc(O)nc1)c(=O)n2C1CCOCC1"
  target.or.system: "PIK3CA (human), P42336 [Antiproliferation of PI3K Mutated BT20 Cells]"
  classification: "bucket 3"
- structure: "CNc1nc(C)c2cc(-c3ccc(OC)nc3)c(=O)[nH]c2n1"
  target.or.system: "PIK3CA (human), P42336 [Antiproliferation of PI3K Mutated BT20 Cells]"
  classification: "bucket 3"
- structure: "CNc1nc(C)c2cc(-c3cccnc3OC)c(=O)n(C3CCCC3)c2n1"
  target.or.system: "PIK3CA (human), P42336 [Antiproliferation of PI3K Mutated BT20 Cells]"
  classification: "bucket 3"

Query: Which category does the recorded IC50 put Cc1nc(N)nc2c1cc(-c1cnc3[nH]ccc3c1)c(=O)n2[C@H]1CC[C@H](O)CC1 in?
Result: bucket 2

Query: Which category does the recorded IC50 put CNc1nc(C)c2cc(-c3cnn(CC(F)F)c3)c(=O)n(C3CCCC3)c2n1 in?
Result: bucket 3

Query: Which category does the recorded IC50 put COc1ncc(-c2cc3c(C)nc(N)nc3n([C@H]3CC[C@H](OCCO)CC3)c2=O)cn1 in?
Result: bucket 2

Query: Which category does the recorded IC50 put CCn1nccc1NC(=O)c1cc2c(C)nc(N)nc2n([C@H]2CC[C@H](O)CC2)c1=O in?
Result: bucket 2

Query: Which category does the recorded IC50 put Cc1nc(N)nc2c1cc(C#N)c(=O)n2C1CCC1 in?
Result: bucket 3

* * *

- target.or.system: PIK3CA (human), P42336 [Antiproliferation of PI3K Mutated BT20 Cells]
- assay.text: Cell-Based Assay
Classes by IC50: lower bin (below 30 nM), middle bin (30 nM to below 50 nM), upper bin (50 nM or more)

- compound: "COc1ccc(-c2cc3c(C)nc(N)nc3n(CCC3CC3)c2=O)cn1"
  classification: "upper bin"
- compound: "CNc1nc(C)c2cc(-c3ccc(OC)nc3)c(=O)n(CC3CCOC3)c2n1 (stereo not given)"
  classification: "middle bin"
- compound: "CO[C@H]1CC[C@H](n2c(=O)c(-c3ccc(N(C)C)nc3)cc3c(C)nc(N)nc32)CC1"
  classification: "lower bin"

Then this compound:
Query: Which category does the recorded IC50 put CCNc1nc(C)c2cc(-c3cccnc3N)c(=O)n(C3CCCC3)c2n1 in?
Result: upper bin

* * *

- target.or.system: PIK3CA (human), P42336 [Antiproliferation of PI3K Mutated BT20 Cells]
- assay.text: Cell-Based Assay
measurement.label: pIC50
Lab note — pIC50 values are minus log10 of concentrations in M.

- compound: "COc1ccc(-c2cc3c(C)nc(NCC(C)(C)O)nc3n(C3CCCC3)c2=O)cn1"
  target.or.system: "PIK3CA (human), P42336 [Antiproliferation of PI3K Mutated BT20 Cells]"
  pIC50: 5.24
- compound: "COc1ccc(-c2cc3c(C)nc(N)nc3n(CCN)c2=O)cn1"
  target.or.system: "PIK3CA (human), P42336 [Antiproliferation of PI3K Mutated BT20 Cells]"
  pIC50: 5.34
- compound: "CNc1nc(C)c2cc(-c3ccc(OC)nc3)c(=O)n(C3CCC3)c2n1"
  target.or.system: "PIK3CA (human), P42336 [Antiproliferation of PI3K Mutated BT20 Cells]"
  pIC50: 7.23
- compound: "CNc1nc(C)c2cc(-c3cc(CN)ccc3F)c(=O)n(C3CCCC3)c2n1"
  target.or.system: "PIK3CA (human), P42336 [Antiproliferation of PI3K Mutated BT20 Cells]"
  pIC50: 5.00
- compound: "COc1ccc(-c2cc3c(C)nc(N)nc3n(CC(F)(F)F)c2=O)cn1"
  target.or.system: "PIK3CA (human), P42336 [Antiproliferation of PI3K Mutated BT20 Cells]"
  pIC50: 6.58
- compound: "Cc1nc(N)nc2c1cc(-c1c[nH]nn1)c(=O)n2C(C)C"
  target.or.system: "PIK3CA (human), P42336 [Antiproliferation of PI3K Mutated BT20 Cells]"
  pIC50: 6.25
- compound: "Cc1nc(N)nc2c1cc(-c1cnn(C)c1)c(=O)n2[C@H]1CC[C@H](OCCO)CC1"
  target.or.system: "PIK3CA (human), P42336 [Antiproliferation of PI3K Mutated BT20 Cells]"
  pIC50: 6.65
- compound: "CCNc1nc(C)c2cc(CCC(=O)O)c(=O)n(C3CCCC3)c2n1"
  target.or.system: "PIK3CA (human), P42336 [Antiproliferation of PI3K Mutated BT20 Cells]"
  pIC50: 5.00
- compound: "COc1ccc(-c2cc3c(C)nc(N)nc3n(CC3CCOCC3)c2=O)cn1"
  target.or.system: "PIK3CA (human), P42336 [Antiproliferation of PI3K Mutated BT20 Cells]"
  pIC50: 7.05
- compound: "CNc1nc(C)c2cc(-c3ccc(OC)nc3)c(=O)n(CCC3CC3)c2n1"
  target.or.system: "PIK3CA (human), P42336 [Antiproliferation of PI3K Mutated BT20 Cells]"
  pIC50: 7.38

Query: Return pIC50 (reported value) for this compound: Cc1nc(N)nc2c1cc(-c1cnc3[nH]ccc3c1)c(=O)n2C1CCOCC1
Result: 7.82

Query: Return pIC50 (reported value) for this compound: CCNc1nc(C)c2cc(-c3cccc(OC)c3)c(=O)n(C3CCCC3)c2n1
Result: 5.86

Query: Return pIC50 (reported value) for this compound: CNc1nc(C)c2cc(-c3ccc(OC)nc3)c(=O)n(C(C)C)c2n1
Result: 7.02

Query: Return pIC50 (reported value) for this compound: Cc1nc(N)nc2c1cc(-c1cnc3[nH]ccc3c1)c(=O)n2C1CCCC1
Result: 8.56

* * *

- target.or.system: PIK3CA (human), P42336 [Antiproliferation of PI3K Mutated BT20 Cells]
- assay.text: Cell-Based Assay
measurement.label: pIC50
Lab note — pIC50 values are minus log10 of concentrations in M.

Here are 2 compounds together with their reported answers.
- compound: "Cc1nc(N)nc2c1cc(-c1cnc3[nH]ccc3c1)c(=O)n2CC1CCCO1 (stereo not given)"
  pIC50: 7.44
- compound: "Cc1nc(N)nc2c1cc(Br)c(=O)n2C1CCC(=O)CC1"
  pIC50: 6.68

Query: Return pIC50 (reported value) for this compound: Cc1nc(N)nc2c1cc(Br)c(=O)n2CC1CCCO1 (stereo not given)
Result: 5.67

Query: Return pIC50 (reported value) for this compound: CNc1nc(C)c2cc(-c3c[nH]c(C)n3)c(=O)n(C3CCCC3)c2n1
Result: 6.74

Query: Return pIC50 (reported value) for this compound: Cc1nc(N)nc2c1cc(-c1ccc(Cl)nc1)c(=O)n2C1CCCC1
Result: 7.13

* * *

Recorded pIC50 by entry
- target.or.system: PIK3CA (human), P42336 [Antiproliferation of PI3K Mutated BT20 Cells]
- assay.text: Cell-Based Assay
Lab note — pIC50 values are minus log10 of concentrations in M.

Here are 2 compounds together with their reported answers.
- compound: "Cc1nc(N)nc2c1cc(-c1cnn(C)c1)c(=O)n2C1CCCC1"
  pIC50: 6.21
- compound: "COc1ccc(-c2cc3c(C)nc(N)nc3n(C3CCOCC3)c2=O)cn1"
  pIC50: 7.15

Query: Return pIC50 (reported value) for this compound: CNc1nc(C)c2cc(C(=O)Nc3ccon3)c(=O)n(C3CCCC3)c2n1
Result: 7.14

Query: Return pIC50 (reported value) for this compound: COc1ccc(-c2cc3c(C)nc(N)nc3n(C3CN(C(=O)OC(C)(C)C)C3)c2=O)cn1
Result: 6.50

Query: Return pIC50 (reported value) for this compound: CNc1nc(C)c2cc(C(=O)Nc3cc[nH]n3)c(=O)n(C3CCCC3)c2n1
Result: 7.79
